# Measurement target: N128E mutant 5-HT3 receptor (mouse 5-HT3A subunit) (Mus musculus, UniProt P23979, N128E)
# Sequence (P23979 24-483 isoform P23979-2 N128E limits assumed): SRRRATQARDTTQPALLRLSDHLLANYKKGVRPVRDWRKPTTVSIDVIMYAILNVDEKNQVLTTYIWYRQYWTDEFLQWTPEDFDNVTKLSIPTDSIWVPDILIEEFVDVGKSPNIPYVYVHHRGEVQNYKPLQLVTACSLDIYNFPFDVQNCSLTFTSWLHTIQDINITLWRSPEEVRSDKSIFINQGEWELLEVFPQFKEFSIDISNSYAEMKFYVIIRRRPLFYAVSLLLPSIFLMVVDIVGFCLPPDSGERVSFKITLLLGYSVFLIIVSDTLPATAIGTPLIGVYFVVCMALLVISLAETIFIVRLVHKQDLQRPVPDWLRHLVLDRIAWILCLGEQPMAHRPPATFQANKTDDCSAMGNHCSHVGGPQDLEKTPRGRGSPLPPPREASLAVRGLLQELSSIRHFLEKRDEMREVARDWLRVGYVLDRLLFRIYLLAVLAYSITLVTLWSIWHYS
# Method description: Agonist-induced currents, voltage clamp electrophysiology in Xenopus oocytes
# Assay type: cell-based
# Recorded conditions: N128E
For each entry below, report its nH (Hill coefficient) value.
Numbers only.

Give measured nH (Hill coefficient) for every item shown.
1. NCCc1c[nH]c2ccccc12
2. N=C(N)NC(=N)Nc1cccc(Cl)c1 [mCPBG, m-chlorophenylbiguanide]
3. NCCc1c[nH]c2ccc(F)cc12

Result:
1. 2.90
2. 1.81
3. 1.97
